Reference source: patent US9409952B2

assay: Metabolic stability in mouse hepatic microsome; type: in vitro ADME; conditions: male, mouse, liver microsomes, pH 7.4; Table 9, thioether versus sulfoxide; read-out: Mouse Hepatic Microsome CLh, int
Starred links: 1 amine or outer side, 2 acyl side, 3 side chain; linkers in the order of their positions; H or OH if unused. Positions of bridges follow the written chain, without caps; N, C: chain ends. Non-standard residues stand in square brackets, D forms with d. Residues, ends and D or L forms follow the SMILES beside them. *: point of attachment. Cys(O)(CH2CO) = O=C([C@H](C[S+]([O-])CC(=O)[*:3])N[*:1])[*:2]; NMeF = CN[C@@H](Cc1ccccc1)C(=O)O; NMeI = CC[C@H](C)[C@H](NC)C(=O)O; NMeL = CN[C@@H](CC(C)C)C(=O)O; NMeA = CN[C@@H](C)C(=O)O; Piperidide = C1CCN(*)CC1; Sar = CNCC(=O)O; tBu = CC(C)(C)*
measured.parameter: microsomal CLint at 1 uM
Answers without a unit are incomplete; give the number and then its unit.

[Q] Requested field: microsomal CLint at 1 uM. Item: CC[C@H](C)[C@H]1C(=O)N[C@H](C(=O)N2CCCCC2)C[S+]([O-])CC(=O)N(C)[C@@H](C)C(=O)N[C@@H](Cc2ccccc2)C(=O)N(C)[C@@H](CC(C)C)C(=O)N[C@@H]([C@@H](C)O)C(=O)N(C)CC(=O)N(C)[C@@H](CC(C)C)C(=O)N[C@@H](COC(C)(C)C)C(=O)N1C (some centres unmarked) [Compound P-117] ([NMeA]F[NMeL]T[Sar][NMeL]S(tBu)[NMeI][Cys(O)(CH2CO)]-Piperidide; lactam N-9)
[A] 36 µL/min/mg

[Q] And for CC[C@H](C)[C@H]1C(=O)N[C@H](C(=O)N2CCCCC2)C[S+]([O-])CC(=O)N(C)[C@@H](Cc2ccccc2)C(=O)N(C)[C@@H](C)C(=O)N(C)[C@@H](Cc2ccccc2)C(=O)N(C)[C@@H](CC(C)C)C(=O)N[C@@H]([C@@H](C)O)C(=O)N(C)CC(=O)N(C)[C@@H](CC(C)C)C(=O)N[C@@H](COC(C)(C)C)C(=O)N1C (some centres unmarked) [Compound P-116] ([NMeF][NMeA][NMeF][NMeL]T[Sar][NMeL]S(tBu)[NMeI][Cys(O)(CH2CO)]-Piperidide; lactam N-10) ?
[A] 56.5 µL/min/mg

====

assay: Metabolic stability in human hepatic microsome; type: in vitro ADME; details: microsomes, pH 7.4; human hepatic microsome, NADPH(+); read-out: CL NADPH(+)
Starred links: 1 amine or outer side, 2 acyl side, 3 side chain; linkers in the order of their positions; H or OH if unused. Positions of bridges follow the written chain, without caps; N, C: chain ends. Non-standard residues stand in square brackets, D forms with d. Residues, ends and D or L forms follow the SMILES beside them. *: point of attachment. NMeF = CN[C@@H](Cc1ccccc1)C(=O)O; NMeGABA = CN(CCCC(=O)[*:2])[*:1]; NMeI = CC[C@H](C)[C@H](NC)C(=O)O; NMeβAla = CN(CCC(=O)[*:2])[*:1]; NMeL = CN[C@@H](CC(C)C)C(=O)O; NMeA = CN[C@@H](C)C(=O)O; Piperidide = C1CCN(*)CC1; Sar = CNCC(=O)O
Field: microsomal CLint at 1 uM. Provide a value for each of the molecules that follow.
// note: answer is a bare numeric in µL/min/mg

[Q] Requested field: microsomal CLint at 1 uM. Item: CC(C)C[C@H]1C(=O)N[C@@H](Cc2ccccc2)C(=O)N[C@H](C(=O)N(C)[C@@H](Cc2ccccc2)C(=O)N[C@@H](C)C(=O)N2CCCCC2)CC(=O)N(C)CCCC(=O)N[C@@H]([C@@H](C)O)C(=O)N(C)CC(=O)N(C)[C@@H](C)C(=O)N[C@@H](C(C)C)C(=O)N(C)[C@@H](Cc2ccccc2)C(=O)N1C [DP-383] ([NMeGABA]T[Sar][NMeA]V[NMeF][NMeL]FD[NMeF]A-Piperidide; lactam N-9)
[A] 138

[Q] And for CC(C)C[C@@H]1NC(=O)[C@H](CC(C)C)N(C)C(=O)[C@@H]2CCCN2C(=O)[C@H](CC(C)C)N(C)C(=O)[C@H](Cc2ccccc2)NC(=O)CNC(=O)[C@H](CC(C)C)N(C)C(=O)[C@H](Cc2ccccc2)NC(=O)CCN(C)C(=O)C[C@@H](C(=O)N(C)[C@@H](Cc2ccccc2)C(=O)N[C@@H](C)C(=O)N2CCCCC2)NC(=O)[C@H]([C@@H](C)O)NC1=O [DP-182] ([NMeβAla]F[NMeL]GF[NMeL]P[NMeL]LTD[NMeF]A-Piperidide; lactam N-11) ?
[A] 9

[Q] And for CC[C@H](C)[C@H]1C(=O)N(C)[C@@H](CC(C)C)C(=O)N[C@H](C(=O)N2CCCCC2)CC(=O)N(C)CCCC(=O)N[C@@H]([C@@H](C)O)C(=O)N(C)[C@@H](C)C(=O)N(C)[C@@H](Cc2ccccc2)C(=O)N(C)[C@@H](Cc2ccccc2)C(=O)N(C)[C@@H](CC(C)C)C(=O)NCC(=O)N1C [DP-262] ([NMeGABA]T[NMeA][NMeF][NMeF][NMeL]G[NMeI][NMeL]D-Piperidide; lactam N-10) ?
[A] 94

====

experiment: Metabolic stability in human hepatic microsome; assay type: in vitro ADME; conditions: microsomes, pH 7.4; human hepatic microsome, NADPH(+); read-out: CL NADPH(+)
Positions of bridges follow the written chain, without caps; N, C: chain ends. Non-standard residues stand in square brackets, D forms with d. Residues, ends and D or L forms follow the SMILES beside them. *: point of attachment. NMePhe(3-Cl) = CN[C@@H](Cc1cccc(Cl)c1)C(=O)O; Ala(4-thiazolyl) = N[C@@H](Cc1cscn1)C(=O)O; NMeF = CN[C@@H](Cc1ccccc1)C(=O)O; NMeL = CN[C@@H](CC(C)C)C(=O)O; NMeA = CN[C@@H](C)C(=O)O; Piperidide = C1CCN(*)CC1; Sar = CNCC(=O)O
measured.parameter: microsomal CLint at 1 uM (µL/min/mg)
// note: answer is a bare numeric in µL/min/mg

[Q] Requested field: microsomal CLint at 1 uM. Item: CC[C@H](C)[C@H](NC(=O)[C@H](CC(C)C)N(C)C(=O)CN(C)C(=O)[C@H](C)N(C)C(=O)[C@H](Cc1ccccc1)N(C)C(=O)[C@@H]1CC(=O)N[C@H](C(C)C)C(=O)N[C@@H](C(C)C)C(=O)N[C@@H]([C@@H](C)O)C(=O)N[C@@H](CC(C)C)C(=O)N[C@@H](Cc2ccccc2)C(=O)N(C)[C@@H](CC(C)C)C(=O)N(C)[C@@H](Cc2cccc(Cl)c2)C(=O)N1)C(=O)N1CCCCC1 [DP-924] ([dV]VTLF[NMeL][NMePhe(3-Cl)]D[NMeF][NMeA][Sar][NMeL]I-Piperidide; lactam N-8)
[A] 19

[Q] And for CC(C)C[C@@H]1NC(=O)[C@H](CC(C)C)N(C)C(=O)[C@H](C)N(C)C(=O)[C@@H](C(C)C)NC(=O)C[C@@H](C(=O)N2CCCCC2)NC(=O)[C@H](Cc2cscn2)NC(=O)[C@H](C)N(C)C(=O)[C@H](C)N(C)C(=O)[C@H](C)N(C)C(=O)[C@H](Cc2ccccc2)NC(=O)[C@H](Cc2ccccc2)N(C)C1=O [DP-624] ([dV][NMeA][NMeL]L[NMeF]F[NMeA][NMeA][NMeA][Ala(4-thiazolyl)]D-Piperidide; lactam N-11) ?
[A] 30

====

assay: Metabolic stability in human hepatic microsome; type: in vitro ADME; conditions: microsomes, pH 7.4; human hepatic microsome, NADPH(+); read-out: CL NADPH(+)
Starred links: 1 amine or outer side, 2 acyl side, 3 side chain; linkers in the order of their positions; H or OH if unused. Positions of bridges follow the written chain, without caps; N, C: chain ends. Non-standard residues stand in square brackets, D forms with d. Residues, ends and D or L forms follow the SMILES beside them. *: point of attachment. NMeF = CN[C@@H](Cc1ccccc1)C(=O)O; NMeβAla = CN(CCC(=O)[*:2])[*:1]; NMeL = CN[C@@H](CC(C)C)C(=O)O; NMeV = CN[C@H](C(=O)O)C(C)C; NMeA = CN[C@@H](C)C(=O)O; Piperidide = C1CCN(*)CC1
Field: microsomal CLint at 1 uM. Provide a value for each of the molecules that follow.
Answers without a unit are incomplete; give the number and then its unit.

[Q] Requested field: microsomal CLint at 1 uM. Item: CC(C)C[C@H]1C(=O)N(C)[C@@H](CC(C)C)C(=O)N[C@H](C(=O)N2CCCCC2)CC(=O)N[C@H](C)C(=O)N(C)[C@@H](Cc2ccccc2)C(=O)N(C)[C@@H](CC(C)C)C(=O)N[C@@H]([C@@H](C)O)C(=O)N1C [DP-721] ([dA][NMeF][NMeL]T[NMeL][NMeL]D-Piperidide; lactam N-7)
[A] 915 µL/min/mg

[Q] And for CC(C)C[C@H]1C(=O)N[C@@H]([C@@H](C)O)C(=O)N(C)[C@@H](C)C(=O)N[C@H](C(=O)N(C)[C@@H](Cc2ccccc2)C(=O)N[C@@H](C)C(=O)N2CCCCC2)CC(=O)N(C)CCC(=O)N(C)[C@@H](C(C)C)C(=O)N(C)[C@@H](Cc2ccccc2)C(=O)N(C)[C@@H](Cc2ccccc2)C(=O)N[C@@H](C)C(=O)N(C)[C@@H](C)C(=O)N1C [DP-370] ([NMeβAla][NMeV][NMeF][NMeF]A[NMeA][NMeL]T[NMeA]D[NMeF]A-Piperidide; lactam N-10) ?
[A] 36 µL/min/mg

[Q] And for C=C1CCC(=O)N(C)[C@@H](Cc2ccccc2)C(=O)N[C@@H](CC(C)C)C(=O)N(C)[C@@H](CC(C)C)C(=O)N[C@@H]([C@@H](C)O)C(=O)N(C)CC(=O)N(C)[C@@H]([C@@H](C)CC)C(=O)N[C@@H](COC(C)(C)C)C(=O)N(C)[C@@H](Cc2ccccc2)C(=O)N(C)[C@@H](C(C)C)C(=O)N[C@H](C(=O)N2CCCCC2)Cc2cccc1c2 [DP-851] ?
[A] 99 µL/min/mg
